Molecular target: recombinant RSK2 kinase (Homo sapiens (Human), UniProt P51812)
Sequence (P51812 whole entry): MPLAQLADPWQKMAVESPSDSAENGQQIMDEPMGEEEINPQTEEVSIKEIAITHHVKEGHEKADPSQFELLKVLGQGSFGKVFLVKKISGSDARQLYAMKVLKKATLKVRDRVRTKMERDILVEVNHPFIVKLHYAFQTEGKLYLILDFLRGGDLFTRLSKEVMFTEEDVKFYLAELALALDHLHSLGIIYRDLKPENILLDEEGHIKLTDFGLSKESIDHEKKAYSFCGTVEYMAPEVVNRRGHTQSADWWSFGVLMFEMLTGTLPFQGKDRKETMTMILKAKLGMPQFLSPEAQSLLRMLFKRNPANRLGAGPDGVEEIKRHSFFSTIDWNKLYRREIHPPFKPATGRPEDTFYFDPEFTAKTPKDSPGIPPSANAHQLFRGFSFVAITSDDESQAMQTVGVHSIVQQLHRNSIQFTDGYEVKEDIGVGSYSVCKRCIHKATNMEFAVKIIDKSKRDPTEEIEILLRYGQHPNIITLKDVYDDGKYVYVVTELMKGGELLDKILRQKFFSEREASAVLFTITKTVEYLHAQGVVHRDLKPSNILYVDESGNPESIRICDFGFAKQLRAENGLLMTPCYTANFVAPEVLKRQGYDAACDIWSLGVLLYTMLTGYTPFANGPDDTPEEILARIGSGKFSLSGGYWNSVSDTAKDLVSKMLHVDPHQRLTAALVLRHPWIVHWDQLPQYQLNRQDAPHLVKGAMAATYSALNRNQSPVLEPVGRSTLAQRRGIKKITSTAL
Assay: LANCE Eu TR-FRET recombinant RSK2 kinase inhibition assay
Conditions: recombinant RSK2, 3 μM ATP, mean ± S.D. (n=3)
Protocol: All reagents were prepared in kinase buffer containing 2 mM DTT, 50 mM HEPES, 1 mM EGTA, 10 mM MgCl2, 0.01% Tween 20, pH 7.5. […] RSK2 was used at a final concentration of 500 μM. […] The exemplary compounds were evaluated for their effect on RSK2 activity in the recombinant TR-FRET kinase inhibition assay and their half-maximal inhibitory potency values (IC50) were calculated using nonlinear regression analysis of the log dose-response.
Observable: pIC50
Note: pIC50 values are expressed as the negative base-10 logarithm of concentration in M.

Would you please look over these solved cases?
INSERT INTO measurements (sample_smiles, assay_system, observable, measurement) VALUES
  ('Oc1c(F)cc(Nc2ncc3ncn(-c4cccc(Oc5ccccc5)c4)c3n2)cc1F', 'recombinant RSK2 kinase (Homo sapiens (Human), UniProt P51812)', 'pIC50', 6.48),
  ('Oc1ccc(-n2cnc3cnc(Nc4cc(F)c(O)c(F)c4)nc32)cc1', 'recombinant RSK2 kinase (Homo sapiens (Human), UniProt P51812)', 'pIC50', 7.09),
  ('CC(C)CCn1ccc2cnc(Nc3cc(F)c(O)c(F)c3)nc21', 'recombinant RSK2 kinase (Homo sapiens (Human), UniProt P51812)', 'pIC50', 7.02),
  ('CN1CCN(c2ccc(-n3ccc4cnc(Nc5cc(F)c(O)c(F)c5)nc43)cc2)CC1', 'recombinant RSK2 kinase (Homo sapiens (Human), UniProt P51812)', 'pIC50', 7.46),
  ('Oc1c(F)cc(Nc2ncc3ccn(-c4ccc(N5CCOCC5)cc4)c3n2)cc1F', 'recombinant RSK2 kinase (Homo sapiens (Human), UniProt P51812)', 'pIC50', 7.59),
  ('COC(=O)CCCc1ccc(-n2cnc3cnc(Nc4cc(F)c(O)c(F)c4)nc32)cc1', 'recombinant RSK2 kinase (Homo sapiens (Human), UniProt P51812)', 'pIC50', 7.75);

In: Which pIC50 value is on record for Oc1c(F)cc(Nc2ncc3ncn(-c4ccc(N5CCOCC5)cc4)c3n2)cc1F ?
Out: 7.61

In: Which pIC50 value is on record for Oc1c(F)cc(Nc2ncc3ncn(-c4ccc(CCN5CCOCC5)cc4)c3n2)cc1F ?
Out: 7.74

In: Which pIC50 value is on record for Oc1cccc(-n2cnc3cnc(Nc4cc(F)c(O)c(F)c4)nc32)c1 ?
Out: 7.10

In: Which pIC50 value is on record for Oc1c(F)cc(Nc2ncc3ncn(-c4ccc(Oc5ccccc5)cc4)c3n2)cc1F ?
Out: 6.83

In: Which pIC50 value is on record for CC(C)CCn1cnc2cnc(Nc3cc(F)c(O)c(F)c3)nc21 ?
Out: 7.26

In: Which pIC50 value is on record for COC(=O)CCc1ccc(-n2cnc3cnc(Nc4cc(F)c(O)c(F)c4)nc32)cc1 ?
Out: 7.80

Where these numbers come from: patent US11851436B2
